tested on: CDK11; construct: gene CDK19; conditions: Compound Concentration (nM):1000;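 note: KINOMEscan scanMAX binding as percent activity remaining versus control; lower means stronger binding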
Each record here notes measured Percent Control.
Only the number, expressed in %, is required.

INSERT INTO measurements (compound, unit_spec, reported_measurement) VALUES
  ('COc1cc(C)c(N(C)C(=O)CN(C)C)cc1Nc1nc(Nc2cccc(F)c2C(N)=O)c2cc[nH]c2n1 [GSK2219385]', '%', 92);

Please list Percent Control recorded for the compound Cl.O=C(O[C@H]1CN[C@H](C#Cc2cc3ncnc(Nc4ccc5c(cnn5Cc5ccccc5)c4)c3s2)C1)N1CCOCC1 [GSK200398A]
92

Return Percent Control for the following compound: COc1cc(C=NNc2ncnc3c2cnn3-c2ccccc2)ccc1O [GW513184X]
100

Please report the measured Percent Control for COc1cc(/C=N/Nc2ncnc3[nH]ncc23)ccc1O [GW578748X]
100

Give recorded Percent Control. Cl.O=C(Nc1ccc(Oc2ccc3[nH]c(NC(=O)c4ccco4)nc3c2)cc1)Nc1cc(C(F)(F)F)ccc1F [GW683134A]
13

Report measured Percent Control; entry is CCS(=O)(=O)c1ccc(OC)c(Nc2ncc(-c3cccc(OC)c3)o2)c1 [GW580509X]
100

Provide only the value of recorded Percent Control for COc1cc2ncnc(Nc3ccc4c(cnn4Cc4ccccc4)c3)c2cc1OC.Cl [GW282449A]
100

Provide one value: measured Percent Control of O=C1Nc2ccc(C(=O)c3ccco3)cc2C1=Cc1cc(Cl)c(O)c(Cl)c1 [GW406108X]
100
